- Tested on: Calu-3
- ASSAY SUMMARY: cell viability relative to DMSO; higher = less toxic
- MEASUREMENT PARAMETERS: 72 h; 1 nM
Please provide measured cell viability for the entries that follow.
Supply the numeric figure in %, leaving out any unit text.

Exam item: Give a short answer stating reported cell viability for CCN1C(C)(C)CC(Oc2ccc(C(=O)Nc3ccc(NC(=O)Nc4cc(C(C)(C)C)on4)cc3)nc2)CC1(C)C [AC-710] .
Marked response: 108

Exam item: Quickly give me recorded cell viability for COc1ccc2nc(NC(=O)Nc3ccccc3)sc2c1 [frentizole]
Marked response: 110

Exam item: Provide only the value of recorded cell viability for CCCn1c(=O)[nH]c(=O)c2nc[nH]c21 [enprofylline]
Marked response: 105

Exam item: Specify reported cell viability for the compound shown: N[C@@H](Cn1oc(=O)[nH]c1=O)C(=O)O [L-quisqualic-acid]
Marked response: 87.9

Exam item: Given the compound COc1cc2c(cc1OCCCN1CCCC1)N=C(N)C21CCC1 [A-366] , write its reported cell viability.
Marked response: 97.3

Exam item: # return recorded cell viability for input COc1cc(C(C)=O)ccc1O [apocynin]
Marked response: 95.2

Exam item: Indicate its recorded cell viability; the compound in question is N#Cc1ccccc1OCC(O)CNCCNC(=O)Nc1ccccc1 (stereo not drawn)
Marked response: 100

Exam item: Tell me measured cell viability for CC(C)(C)c1ccc(/C=C/C(=O)Nc2ccc3c(c2)OCCO3)cc1 [AMG-9810] please.
Marked response: 103

Exam item: Indicate its recorded cell viability; the compound in question is CN[C@@H](C)CCC=C(C)C [isometheptene-mucate]
Marked response: 94

Exam item: Provide measured cell viability value, entry: C[C@H](NC(=O)Cc1cc(F)cc(F)c1)C(=O)N[C@H](C(=O)OC(C)(C)C)c1ccccc1 [DAPT]
Marked response: 105

Exam item: Give recorded cell viability. CN(C)CCn1cc(S(=O)(=O)c2cccc(F)c2)c2cccnc21
Marked response: 116

Exam item: Given O=C(Nc1ccncc1)C(=O)c1cn(Cc2ccc(Cl)cc2)c2ccccc12 [indibulin] , respond with its cell viability.
Marked response: 97.9

Exam item: Dear colleague, please send me the reported cell viability for CCOP(=S)(OCC)Oc1cc(C)nc(C(C)C)n1 [dimpylate] when you can.
Marked response: 106
